Would you kindly list log10(Kd) for each of these binders?
- tested_on: T1, soluble human CD3 epsilon chain (human, UniProt P07766 23-126)
- T1 construct: also called CD3ε
- experimental_protocol: SPR
Short version: log10 scale, Kd, nM.

Consider the following illustrative entries.
- CE115HA252-E22Hh//-Hi-Kn010G3/L0000-k0 (antibody, V domains shown, one-arm) VH: QVQLVESGGGVVQPGRSLRLSCAASGFTFSNAWMHWVRQAPGKGLEWVAQIKAKSNNYKKYYAESVKGRFTISRDDSKNSLYLQMNSLKTEDTAVYYCRYVHYYYYYGVDAWGQGTTVTVSS VL: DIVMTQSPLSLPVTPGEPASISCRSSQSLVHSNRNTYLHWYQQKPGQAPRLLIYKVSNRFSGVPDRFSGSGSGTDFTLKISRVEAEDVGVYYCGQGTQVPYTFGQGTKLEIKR: 0.98
- TR01H040-E22Hh/none-Hi-Kn010G3/L0219-k0 (antibody, V domains shown, one-arm) VH: QVQLVESGGGLVQPGRSLRLSCAASGFTFSNAWMHWVRQAPGKGLEWVAQIKDKSQNYATYYAESVKGRFTISRADSKNSIYLQMNSLKTEDTAVYYCRYVHYSASYGVDAWGQGTTVTVSS VL: DIVMTQSPLSLPVTPGEPASISCRSSQSLVHSNRNTYIHWYQQKPGQAPRLLIYKVSNRFRGVPDRFSGSGSGTDFTLKISRVEAEDVGVYYCGQGTQVPYTFGQGTKLEIK: 1.60

Return reported log10(Kd) values for all items listed beneath this line.
1. TR01H040-E22Hh/none-Hi-Kn010G3/L0218-k0 (antibody, V domains shown, one-arm) VH: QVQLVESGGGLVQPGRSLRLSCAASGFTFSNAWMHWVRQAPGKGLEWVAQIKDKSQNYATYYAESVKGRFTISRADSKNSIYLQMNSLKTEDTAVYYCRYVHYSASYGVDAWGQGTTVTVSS VL: DIVMTQSPLSLPVTPGEPASISCRSSQSLVHSNRNTYLHWYQQKPGQAPRLLIYKVSNRFRGVPDRFSGSGSGTDFTLKISRVEAEDVGVYYCYQGTQVPYTFGQGTKLEIK
2. TR01H040-E22Hh/none-Hi-Kn010G3/L0247-k0 (antibody, V domains shown, one-arm) VH: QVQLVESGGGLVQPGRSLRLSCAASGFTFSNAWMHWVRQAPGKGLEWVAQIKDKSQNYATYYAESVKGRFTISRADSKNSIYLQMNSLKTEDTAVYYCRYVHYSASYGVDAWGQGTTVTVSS VL: DIVMTQSPLSLPVTPGEPASISCRSSQSPVHSNRNTYIQWYQQKPGQAPRLLIYKVSNRFSGVPDRFSGSGSGTDFTLKISRVEAEDVGVYYCIQGTQVPYTFGQGTKLEIK
3. TR01H040-E22Hh/none-Hi-Kn010G3/L0211-k0 (antibody, V domains shown, one-arm) VH: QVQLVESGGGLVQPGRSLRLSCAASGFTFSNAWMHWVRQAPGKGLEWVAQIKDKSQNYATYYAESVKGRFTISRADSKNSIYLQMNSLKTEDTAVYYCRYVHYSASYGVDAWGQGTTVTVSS VL: DIVMTQSPLSLPVTPGEPASISCRSSQPPVHSNRNTYLHWYQQKPGQAPRLLIYKVSNRFSGVPDRFSGSGSGTDFTLKISRVEAEDVGVYYCYQGTQVPYTFGQGTKLEIKR
4. TR01H071-E22Hh/none-Hi-Kn010G3/L0222-k0 (antibody, V domains shown, one-arm) VH: QVQLVESGGGLVQPGRSLRLSCAASGFTFSNAWMHWVRQAPGKGLEWVAQIKDKSNNYATYYAESVKGRFTISRADSKNSIYLQMNSLKTEDTAVYYCRYVHYAASYGVDIWGQGTTVTVSS VL: DIVMTQSPLSLPVTPGEPASISCRSSQSPVHSNRNTYIQWYQQKPGQAPRLLIYKVSNRFSGVPDRFSGSGSGTDFTLKISRVEAEDVGVYYCYQGTQVPYTFGQGTKLEIKR

A.
0.91
2.00
0.51
1.02

Return reported log10(Kd) values for all items listed beneath this line.
1. TR01H040-E22Hh/none-Hi-Kn010G3/TR01L018-k0 (antibody, V domains shown, one-arm) VH: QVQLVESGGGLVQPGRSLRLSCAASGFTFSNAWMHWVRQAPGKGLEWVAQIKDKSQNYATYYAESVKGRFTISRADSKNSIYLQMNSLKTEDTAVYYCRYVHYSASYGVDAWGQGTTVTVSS VL: DIVMTQSPLSLPVTPGEPASISCQASESPVHSNRNTYLHWYLQKPGQSPQLLIYKVSNRFSGVPDRFSGSGSGTDFTLKISRVEAEDVGVYYCGQGTQVPYTFGQGTKLEIK
2. TR01H082-E22Hh/none-Hi-Kn010G3/L0222-k0 (antibody, V domains shown, one-arm) VH: QVQLVESGGGLVQPGRSLRLSCAASGFTFSNAWMHWVRQAPGKGLEWVAQIKDKSQNYATYYAESVKGRFTISRDDSKNSLYLQMNSLKTEDTAVYYCRYVHYAAGYGVDAWGQGTTVTVSS VL: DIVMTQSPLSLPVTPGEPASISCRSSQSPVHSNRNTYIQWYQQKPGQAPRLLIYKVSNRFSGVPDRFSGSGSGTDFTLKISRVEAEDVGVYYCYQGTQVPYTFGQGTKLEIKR
3. TR01H057-E22Hh/none-Hi-Kn010G3/L0000-k0 (antibody, V domains shown, one-arm) VH: QVQLVESGGGLVQPGRSLRLSCAASGFTFSNAWMHWVRQAPGKGLEWVAQIKDKSQNYATYYAESVKGRFTISRDDSKNSLYLQMNSLKTEDTAVYYCRYVHYSASYGVDAWGQGTTVTVSS VL: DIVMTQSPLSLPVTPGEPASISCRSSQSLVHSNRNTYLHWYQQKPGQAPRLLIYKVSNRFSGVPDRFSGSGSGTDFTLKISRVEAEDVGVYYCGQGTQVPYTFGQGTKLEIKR
4. TR01H062-E22Hh/none-Hi-Kn010G3/L0000-k0 (antibody, V domains shown, one-arm) VH: QVQLVESGGGLVQPGRSLRLSCAASGFTFSNAWMHWVRQAPGKGLEWVAQIKDKSQNYATYYAESVKGRFTISRADSKNSIYLQMNSLKTEDTAVYYCRYVHYAASYGVDAWGQGTTVTVSS VL: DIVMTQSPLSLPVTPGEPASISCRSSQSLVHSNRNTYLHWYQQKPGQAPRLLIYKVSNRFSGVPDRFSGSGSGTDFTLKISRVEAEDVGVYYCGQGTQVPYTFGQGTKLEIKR

A.
1: 1.65; 2: 2.00; 3: 2.05; 4: 1.50

Hello, the source for this data is patent US20250066503A1, in case you need it.
